- tested_on: Serine/threonine-protein kinase pim-1 (Homo sapiens)
- test: PIM1 kinase ligand binding by thermal shift, biophysical, human, melting temperature shift (AID 393)
- condition_summary: Thermal shift assay, at 10 µM, hits give high values; protein 2 µM, buffer 10 mM Na Citrate, pH 6.5, NaCl 150 mM unless noted
The source made the active and inactive calls. The rule behind the calls is not given here.
quantity_name: Tm shift

Input line: Suppose we examine the compound N#C/C(=C1\Nc2ccccc2S1)c1ccnc(NCCc2cccnc2)n1 ; what Tm shift value has been reported?
Output line: 10.3 Celsius (active)

Input line: Suppose we examine the compound CCn1cnc2c(Nc3cccc(Cl)c3)nc(N[C@@H]3CCCC[C@@H]3N)nc21 ; what Tm shift value has been reported?
Output line: 5.8 Celsius (active)

Input line: Suppose we examine the compound Cc1c2ccncc2c(C)c2c1[nH]c1ccccc12 ; what Tm shift value has been reported?
Output line: 8.6 Celsius (active)
